# System: SK-OV-3 ovarian
# Test name: NCI-60 one-dose screen, 48 h (100 = growth as untreated, 0 = no growth, -100 = all killed)
# Measurement context: 10 µM unless noted
About 83,000 compounds went through this panel and 20% of them were active in at least one assay; those are over-represented in the sample as a whole.
Measure: growth (%)

Compound	Measurement unit	Number
CCc1c(C(=O)N[C@@H](C(=O)OCc2ccccc2)C(C)O)[nH]c2ccc(Cl)cc12 (stereo not given in full)	%	59.3
CCCCC1=c2c([nH]c3ccc(OC)cc23)=NC2C=CC=NC12 (stereo not given)	%	113
CCOCc1nc2ccccc2c(=O)[nH]1	%	108
COc1ccc(/C=C(/C(=O)N2CCCC2)c2cc(OC)c(OC)c(OC)c2)cc1	%	22.3
N#Cc1c(-c2ccc(F)cc2)nc(N/N=C/c2cccc(O)c2)nc1N1CCOCC1	%	93.9
COc1cc(-c2cn(-c3ccc(Cl)c(Cl)c3)c(=O)[nH]2)cc(OC)c1OC	%	88.3
COC(=O)c1nc(-c2ccccc2)oc1S(=O)(=O)n1nc(C)cc1N	%	106
CC1=C/C(=N\N=C2/C=C(C)CC(C)(C)C2)CC(C)(C)C1	%	97
COc1ccc2c(c1)Oc1nc(N)c(C#N)c(N)c1C2Sc1ccc(SC)cc1 (stereo not given)	%	94.4
CCOC(=O)c1cnn(-c2nc(-c3ccc(F)cc3)c(C#N)c(N3CCOCC3)n2)c1N	%	101

###

# System: CCRF-CEM leukemia
# Test name: NCI-60 one-dose screen, 48 h (100 = growth as untreated, 0 = no growth, -100 = all killed)
# Measurement context: 10 µM unless noted
This is part of a sample that, as a whole, favours compounds with a hit. Of some 83,000 tested, about 20% had one in any assay.
Measure: growth (%)

Molecule	Study target	Number
COc1ccc2c(c1)Oc1nc(N)c(C#N)c(N)c1C2Sc1ccc(SC)cc1 (stereo not given)	CCRF-CEM leukemia	-2.59
N#CC1C(c2ccc(Cl)cc2)=Nc2c(c(-c3ccccc3)nn2-c2ccccc2)C12C(=O)Nc1ccc(Cl)cc12 (stereo not given)	CCRF-CEM leukemia	19.2
COc1ccc2nc(-c3ccc(OC)c(OC)c3)cc(-c3nnc(SCC(=O)Nc4ccc(C(C)=O)cc4)o3)c2c1	CCRF-CEM leukemia	94.8
O=C(O)CCNC1CCCCC1	CCRF-CEM leukemia	102
c1ccc2c3c([nH]c2c1)C(c1ccc(C2NCCc4c2[nH]c2ccccc42)cc1)NCC3 (stereo not given)	CCRF-CEM leukemia	-16.7

###

# System: SK-MEL-5 melanoma
# Test name: NCI-60 one-dose screen, 48 h (100 = growth as untreated, 0 = no growth, -100 = all killed)
# Measurement context: 10 µM unless noted
About 83,000 compounds went through this panel and 20% of them were active in at least one assay; those are over-represented in the sample as a whole.
# note: boundary value 70% maps to FALSE; growth below it maps to TRUE

Compound	Category
CCOC(=O)c1c(C)nc2c(c1N)/C(=C/c1cccs1)C(=O)N2c1ccc(OC)cc1	TRUE
Cc1ccc(C2=N[C@H]3CCC[C@@H]3N(c3ccccc3)C(C(Cl)Cl)=N2)cc1	FALSE
COc1ccc(C(=S)c2cc(OC)c(OC)c(OC)c2)cc1OC(=O)CCl	TRUE
COCCOCCOCc1n(Cc2ccc3ccccc3c2)c2ccccc2[n+]1Cc1ccc2ccccc2c1	TRUE
CCCCC1=c2c([nH]c3ccc(OC)cc23)=NC2C=CC=NC12 (stereo not given)	FALSE
CCC[S@@](=O)c1ccc2nc(NC(=O)OC)[nH]c2c1	FALSE
CO[C@@]12C=C[C@@]34CCC(=O)N3c3ccccc3[C@@H](O1)C4C2	FALSE
CN1CC=C(c2cc(NC(=O)Nc3ccc(Oc4ccnc(NC(=O)C5CC5)c4)c(F)c3)cc(C(F)(F)F)c2)CC1	TRUE
NS(=O)(=O)c1ccc(C2C3=C(CCCC3=O)OC3=C2C(=O)c2ccccc2C3=O)cc1 (stereo not given)	TRUE
O=C(NCc1ccccc1)c1ccc2c(c1)NC(=O)[C@@H]1CCCN21	FALSE
O=C(/C(=C/c1ccc([N+](=O)[O-])cc1)SCc1ccc(F)cc1)c1ccc(Cl)cc1	TRUE
O=C(/C(=C/c1ccc([N+](=O)[O-])cc1)SCc1ccccc1)c1ccc(Cl)cc1	FALSE
CC1CCN(CCCCCOc2ccc3oc4cc(Cl)ccc4c(=O)c3c2)CC1	TRUE
O=[N+]([O-])c1ccc(Oc2ccc(-c3ccccc3)cc2)cc1	FALSE
O=C1NC(SCc2ccc(F)cc2)=N/C1=C/c1cccc(OCc2ccc(Cl)cc2)c1	FALSE
CCOCCc1c(O)nc(SC)[nH]c1=O	FALSE
O=c1nc(-c2ccccc2)c2cc(-c3ccc(N4CCCC4)nc3)ccc2[nH]1	TRUE
N#CCNc1ccc(C(=O)O)cc1	FALSE
CC(C)C1=C[C@@]23CC[C@H]4[C@](C)(COCCC#N)CCC[C@]4(C)[C@H]2C[C@@H]1[C@@H]1[C@H]3[C@@H](OCCC#N)CC[C@@H]1OCCC#N	TRUE

###

# Tested on: IGROV1 ovarian
# Test name: NCI-60 one-dose screen, 48 h (100 = growth as untreated, 0 = no growth, -100 = all killed)
# Measurement context: 10 µM unless noted
The panel holds about 83,000 compounds, 20% with a hit somewhere; the sample as a whole holds those more often.
Listed next: entries and their corresponding growth.

Molecule	Study target	growth / %
NC(=O)c1ccc2nc3c(n2c1)C(=O)C(=O)c1ccccc1-3	IGROV1 ovarian	-48.8
O=C(Nc1ccc2ncnc(Nc3cccc(C(F)(F)F)c3)c2c1)c1cccs1	IGROV1 ovarian	32.7
COc1cc(-c2cn(-c3ccc(Cl)c(Cl)c3)c(=O)[nH]2)cc(OC)c1OC	IGROV1 ovarian	136
COc1ccc(Nc2nc(SCC(C)C)nc(-c3ccc(F)cc3)c2C#N)cc1	IGROV1 ovarian	71.4
C#Cc1cccc(Nc2ncnc3ccc(NC(=O)c4ccccc4)cc23)c1	IGROV1 ovarian	33.7
Nc1c(C(=O)Nc2ccccn2)sc2nc3c(cc12)CCCCCC3	IGROV1 ovarian	28.9
Cc1cnc(SCc2ccc(Cl)cc2Cl)nc1Nc1ccc(Cl)c(Cl)c1	IGROV1 ovarian	82.8
N#CC1C(c2ccc(Cl)cc2)=Nc2c(c(-c3ccccc3)nn2-c2ccccc2)C12C(=O)Nc1ccc(Cl)cc12 (stereo not given)	IGROV1 ovarian	42.1
C#C[C@@]1(O)[C@@H](CO)O[C@@H](n2ccc3c(N)ncnc32)[C@@H]1O	IGROV1 ovarian	4.28
N#C/C(=C/c1ccc(O)c([N+](=O)[O-])c1)c1nc(-c2ccc([N+](=O)[O-])cc2)cs1	IGROV1 ovarian	55.9

###

# Tested on: NCI-H460 lung
# Test name: NCI-60 one-dose screen, 48 h
# Measurement context: 10 µM unless noted
# Description: Growth inhibition of the NCI-H460 human Non-Small Cell Lung tumor cell line is measured as a screen for anti-cancer activity. Cells are grown in 96 well plates and exposed to the test compound for 48 hours. Compounds are tested at a single concentration, which is 10^-5 M for most compounds. The reported endpoint is percent growth (GI% or GIPRCNT), where numbers from 0 - 100% represent growth inhibition, and numbers from -100% - 0 represent cell death. […]
About 83,000 compounds went through this panel and 20% of them were active in at least one assay; those are over-represented in the sample as a whole. Active and inactive are the calls of the source. The calls were made as follows: active = growth percent below 10; inactive = the rest.
Labels: Yes (active), No (inactive)

Compound	Category
O=C(N/N=C/C[C@@H]1[C@@H](/C=C/[C@@H](O)COc2cccc(Cl)c2)[C@H](O)C[C@@H]1O)c1ccncc1	No
NC(=O)C(O)(c1ccccc1)c1ccccc1	No
CCCCc1n(Cc2ccc3ccccc3c2)c2ccccc2[n+]1Cc1ccc2ccccc2c1	Yes
CC(=O)ON1CCCC(P(=O)(OCOC(=O)C(C)(C)C)OCOC(=O)C(C)(C)C)C1=O (stereo not given)	Yes
Cc1c(Cl)cccc1NC(=O)c1sc2nc3c(cc2c1N)COCC3	No
CCCCC(=O)Nc1c(C(=O)Nc2ccccc2)sc2nc3c(cc12)C(OC(=O)CCCC)CCC3 (stereo not given)	No
CCCS(=O)(=O)Nc1ccc(F)c(C(=O)c2c[nH]c3ncc(-c4ccc(OCCCC5CCCCN5)nc4)cc23)c1F (stereo not given)	No
O=C(/C(=C/c1ccc([N+](=O)[O-])cc1)SCc1ccccc1)c1ccc(Cl)cc1	No
CCSc1ccc(C2C(Br)C(=O)N2c2cc(OC)c(OC)c(OC)c2)cc1 (stereo not given)	No
N#Cc1c(-c2ccc(F)cc2)nc(N=Nc2c(O)[nH]c3ccc(Cl)cc23)nc1N1CCOCC1	No
CCOC(=O)c1ccc(Nc2ncnc3ccc(NC(=O)c4ccccc4)cc23)cc1	No
c1ccc2nc(N3CCOCC3)c(N3CCCCC3)nc2c1	No
CC(=O)Nc1nc2c(c(N)c1C#N)C(c1cccc(Cl)c1)C1=C(CCCC1=O)N2c1sc2c(c1C#N)CCCC2 (stereo not given)	No
O=C1Nc2ccc(Cl)cc2/C1=N/c1nc(-c2ccc(F)cc2)cs1	No
S=C(Nc1ccccc1)c1ccccn1	No
COC(=O)/C=C/c1cc(OC)c2c(c1)[C@@H](C(=O)OC)[C@H](c1ccc(OC)c(OC)c1)O2	No
COc1ccc(C2N(c3cc(OC)c(OC)c(OC)c3)C(=O)C2(F)F)cc1F (stereo not given)	No
CCCNc1nc(C)[nH]c(=O)c1S	No
CCOC(=O)C1=C(C)n2nc(CC#N)c(C#N)c2NC1c1ccc(Cl)cc1 (stereo not given)	No
COC(=O)c1ccc2c(c1)NC(=O)[C@@H]1CCCN21	No
